List of IC50 values.
# System: pseudovirus HIV-1 HXB2
# Assay procedure: organism not typed
# Assay type: cell-based
# Applied conditions: anti-HIV-1 activity, single-cycle assay, TZM-bl cells, pseudovirus HIV-1 HXB2; read-out: IC50

| Molecule | Measured on | Result modifier | IC50 (nM) |
| --- | --- | --- | --- |
| NCC(NC(=O)c1ccc(-c2ccc(Cl)cn2)[nH]1)c1nc(CO)cs1 (stereo not shown) [Compound 16] | pseudovirus HIV-1 HXB2 | = | 1700 |
| NCC(NC(=O)c1ccc(-c2ccc(C(F)(F)F)cn2)[nH]1)c1nc(CO)c(CO)s1 (stereo not shown) [Compound 35] | pseudovirus HIV-1 HXB2 | = | 1800 |
| NCC(NC(=O)c1ccc(-c2ccc(Cl)cn2)[nH]1)c1ncc(CO)s1 (stereo not shown) [Compound 2] | pseudovirus HIV-1 HXB2 | = | 2700 |
| NCC(NC(=O)c1ccc(-c2ccc(C(F)(F)F)cn2)[nH]1)c1csc(C(=O)NCCO)n1 (stereo not shown) | pseudovirus HIV-1 HXB2 | > | 21300 |

----------
# Assay procedure: in vitro
# Applied conditions: human, CC50

| Molecule | Output unit | Result modifier | CC50 at 3 days |
| --- | --- | --- | --- |
| NCC(NC(=O)c1ccc(-c2ncc(Cl)cn2)[nH]1)c1nc(CO)cs1 (centres unmarked) | µM | > | 66 |
| NCC(NC(=O)c1ccc(-c2ccc(Cl)nc2)[nH]1)c1nc(CO)cs1 (centres unmarked) | µM | > | 132 |
| NCC(NC(=O)c1ccc(-c2ccc(C(F)(F)F)cn2)[nH]1)c1nccs1 (centres unmarked) | µM | = | 89.3 |
| NCC(NC(=O)c1ccc(-c2ccc(Cl)cn2)[nH]1)c1nc(CO)cs1 (centres unmarked) | µM | > | 132 |
| NCC(NC(=O)c1ccc(-c2ccc(C(F)(F)F)cn2)[nH]1)c1nc(CO)cs1 (centres unmarked) | µM | = | 96 |
| NCC(NC(=O)c1ccc(-c2ccc(C(F)(F)F)cn2)[nH]1)c1nc(C(O)CO)cs1 (centres unmarked) | µM | > | 113 |
| NCC(NC(=O)c1ccc(-c2ccc(C(F)(F)F)cn2)[nH]1)c1cnc(CO)s1 (centres unmarked) | µM | > | 122 |
| NCC(NC(=O)c1ccc(-c2ccc(Cl)cn2)[nH]1)c1ncc(CO)s1 (centres unmarked) | µM | = | 142 |
| NCC(NC(=O)c1ccc(-c2ccc(Cl)cn2)[nH]1)c1cnc(CO)s1 (centres unmarked) | µM | > | 106 |
| NCC(NC(=O)c1ccc(-c2ccc(C(F)(F)F)cn2)[nH]1)c1nc(CCO)cs1 (centres unmarked) | µM | = | 100 |
| NCC(NC(=O)c1ccc(-c2ccc(F)cn2)[nH]1)c1nc(CO)cs1 (centres unmarked) | µM | > | 138 |
| COc1cc(-c2ccc(C(=O)NC(CN)c3nc(CO)cs3)[nH]2)ccn1 (centres unmarked) | µM | > | 133 |
| NCC(NC(=O)c1ccc(-c2ccc(C(F)(F)F)cc2)[nH]1)c1ncc(CO)s1 (centres unmarked) [Comparator B, reference compound] | µM | = | 34 |
| Cc1ccc(-c2ccc(C(=O)NC(CN)c3nc(CO)cs3)[nH]2)nc1 (centres unmarked) | µM | > | 140 |
| NCC(NC(=O)c1ccc(-c2ccc(C(F)(F)F)cn2)[nH]1)c1csc(CO)n1 (centres unmarked) | µM | = | 84.3 |
| Cc1cc(-c2ccc(C(F)(F)F)cn2)[nH]c1C(=O)NC(CN)c1ncc(CO)s1 (centres unmarked) | µM | = | 92.8 |
| NCC(NC(=O)c1ccc(-c2ccc(C(F)(F)F)nc2)[nH]1)c1nc(CO)cs1 (centres unmarked) | µM | > | 122 |

----------
# Assay procedure: in vitro
# Applied conditions: human, CC50
List of CC50 at 3 days values.

| Compound | CC50 at 3 days |
| --- | --- |
| NCC(NC(=O)c1ccc(-c2ccc(C(F)(F)F)c(F)c2)[nH]1)c1ncc(CO)s1 (centres unmarked) [Comparator A, reference compound] | 21.9 µM |
| NCC(NC(=O)c1ccc(-c2ccc(C(F)(F)F)cn2)[nH]1)c1nc(CCCO)cs1 (centres unmarked) | > 100 µM |
| CC(CN)(NC(=O)c1ccc(-c2ccc(C(F)(F)F)cn2)[nH]1)c1nc(CO)cs1 (racemic) | > 70.5 µM |
| Cc1cc(-c2ccc(C(F)(F)F)cn2)[nH]c1C(=O)NC(CN)c1cnc(CO)s1 (centres unmarked) | 65 µM |
| NCC(NC(=O)c1ccc(-c2ccc(C(F)(F)F)cn2)[nH]1)c1ncc(C(O)CO)s1 (centres unmarked) | > 113 µM |

----------
# Assay procedure: in vitro
# Applied conditions: human, CC50
List of CC50 at 3 days values.

| Molecule | Result modifier | CC50 at 3 days, µM |
| --- | --- | --- |
| Cc1cc(-c2ccc(C(F)(F)F)cn2)[nH]c1C(=O)NC(CN)c1nc(CO)cs1 (centres unmarked) | = | 85 |
| NCC(NC(=O)c1ccc(-c2ccc(C(F)(F)F)cn2)[nH]1)c1ncc(CO)s1 (centres unmarked) | > | 122 |
| NCC(NC(=O)c1ccc(-c2ccc(C(F)(F)F)cn2)[nH]1)c1nc(CO)c(CO)s1 (centres unmarked) | > | 113 |
| NCC(NC(=O)c1ccc(-c2ccc(Cl)cn2)[nH]1)c1csc(CO)n1 (centres unmarked) | > | 106 |
| CC(C)(N)C(NC(=O)c1ccc(-c2ccc(C(F)(F)F)cn2)[nH]1)c1ncc(CO)s1 (centres unmarked) | < | 50 |
| Cc1cc(-c2ccc(C(F)(F)F)cn2)[nH]c1C(=O)NC(c1ncc(CO)s1)C(C)(C)N (centres unmarked) | = | 35.3 |
| Cc1cc(-c2ccc(Cl)cn2)[nH]c1C(=O)NC(CN)c1ncc(CO)s1 (centres unmarked) | = | 98.3 |
| Cc1cc(-c2ccc(C(F)(F)F)cn2)[nH]c1C(=O)NC(CN)c1csc(CO)n1 (centres unmarked) | = | 42.3 |

----------
# System: pseudovirus HIV-1 HXB2
# Assay procedure: organism not typed
# Type: cell-based
# Applied conditions: anti-HIV-1 activity, single-cycle assay, TZM-bl cells, pseudovirus HIV-1 HXB2; read-out: IC50
List of IC50 values.

| Compound | Measured on | Result modifier | IC50 (µM) |
| --- | --- | --- | --- |
| NCC(NC(=O)c1ccc(-c2ccc(C(F)(F)F)cn2)[nH]1)c1nc(CO)c(CO)s1 (centres unmarked) [Compound 36] | pseudovirus HIV-1 HXB2 | = | 13 |
| CC(C)(N)C(NC(=O)c1ccc(-c2ccc(C(F)(F)F)cn2)[nH]1)c1nc(CO)cs1 (centres unmarked) [Compound 23] | pseudovirus HIV-1 HXB2 | = | 1.73 |
| NCC(NC(=O)c1ccc(-c2ccc(C(F)(F)F)cn2)[nH]1)c1nc(CO)cs1 (centres unmarked) | pseudovirus HIV-1 HXB2 | = | 0.5 |
| Cc1ccc(-c2ccc(C(=O)NC(CN)c3nc(CO)cs3)[nH]2)nc1 (centres unmarked) [Compound 20] | pseudovirus HIV-1 HXB2 | > | 11 |
| NCC(NC(=O)c1ccc(-c2ccc(C(F)(F)F)nn2)[nH]1)c1nc(CO)cs1 (centres unmarked) [Compound 44] | pseudovirus HIV-1 HXB2 | > | 12 |
| NCC(NC(=O)c1ccc(-c2ccc(C(F)(F)F)cn2)[nH]1)c1nc(CCCO)cs1 (centres unmarked) [Compound 28] | pseudovirus HIV-1 HXB2 | = | 0.89 |
| NCC(NC(=O)c1ccc(-c2ccc(C(F)(F)F)cn2)[nH]1)c1nccs1 (centres unmarked) | pseudovirus HIV-1 HXB2 | = | 1.2 |
| NCC(NC(=O)c1ccc(-c2ccc(C(F)(F)F)cn2)[nH]1)c1nc(C(O)CO)cs1 (centres unmarked) | pseudovirus HIV-1 HXB2 | = | 3.8 |

----------
# System: TZM-bl cells
# Applied conditions: human, 3 days
// NB: equality with 90 µM counts as NOT MET; only CC50 strictly below is MET

| Molecule | Discrete label |
| --- | --- |
| CC(C)(N)C(NC(=O)c1ccc(-c2ccc(C(F)(F)F)cn2)[nH]1)c1ncc(CO)s1 (stereo not shown) [Compound 9] | MET |
| NCC(NC(=O)c1ccc(-c2ccc(Cl)cn2)[nH]1)c1cnc(CO)s1 (stereo not shown) | NOT MET |
| NCC(NC(=O)c1ccc(-c2ccc(F)cn2)[nH]1)c1nc(CO)cs1 (stereo not shown) | NOT MET |
| CC(C)(N)C(NC(=O)c1ccc(-c2ccc(C(F)(F)F)cn2)[nH]1)c1nc(CO)cs1 (stereo not shown) | MET |
| NCC(NC(=O)c1ccc(-c2ccc(C(F)(F)F)cn2)[nH]1)c1nccs1 (stereo not shown) | NOT MET |
| NCC(NC(=O)c1ccc(-c2ccc(C(F)(F)F)cn2)[nH]1)c1nc(CO)cs1 (stereo not shown) | NOT MET |
| NCC(NC(=O)c1ccc(-c2ccc(C(F)(F)F)nc2)[nH]1)c1nc(CO)cs1 (stereo not shown) | NOT MET |
| NCC(NC(=O)c1ccc(-c2ccc(C(F)(F)F)cn2)[nH]1)c1cnc(CO)s1 (stereo not shown) | NOT MET |
| NCC(NC(=O)c1ccc(-c2ccc(C(F)(F)F)cn2)[nH]1)c1nc(CCCO)cs1 (stereo not shown) [Compound 27] | NOT MET |
| NCC(NC(=O)c1ccc(-c2ccc(Cl)cn2)[nH]1)c1nc(CO)cs1 (stereo not shown) | NOT MET |
| Cc1ccc(-c2ccc(C(=O)NC(CN)c3nc(CO)cs3)[nH]2)nc1 (stereo not shown) | NOT MET |
| NCC(NC(=O)c1ccc(-c2ccc(Cl)cn2)[nH]1)c1ncc(CO)s1 (stereo not shown) | NOT MET |
| NCC(NC(=O)c1ccc(-c2ccc(C(F)(F)F)cn2)[nH]1)c1csc(CO)n1 (stereo not shown) | MET |
| Cc1cc(-c2ccc(Cl)cn2)[nH]c1C(=O)NC(CN)c1ncc(CO)s1 (stereo not shown) | NOT MET |
| NCC(NC(=O)c1ccc(-c2ccc(C(F)(F)F)cn2)[nH]1)c1ncc(C(O)CO)s1 (stereo not shown) | NOT MET |
| NCC(NC(=O)c1ccc(-c2ccc(C(F)(F)F)cn2)[nH]1)c1nc(CCCO)cs1 (stereo not shown) [Compound 28] | MET |
| NCC(NC(=O)c1ccc(-c2ccc(C(F)(F)F)cn2)[nH]1)c1nc(CO)c(CO)s1 (stereo not shown) | NOT MET |
| CC(C)(N)C(NC(=O)c1ccc(-c2ccc(C(F)(F)F)cn2)[nH]1)c1ncc(CO)s1 (stereo not shown) [Compound 10] | MET |
| Cc1cc(-c2ccc(C(F)(F)F)cn2)[nH]c1C(=O)NC(CN)c1cnc(CO)s1 (stereo not shown) | MET |
| Cc1cc(-c2ccc(C(F)(F)F)cn2)[nH]c1C(=O)NC(c1ncc(CO)s1)C(C)(C)N (stereo not shown) | MET |
| NCC(NC(=O)c1ccc(-c2ccc(Cl)cn2)[nH]1)c1csc(CO)n1 (stereo not shown) | NOT MET |
| Cc1cc(-c2ccc(C(F)(F)F)cn2)[nH]c1C(=O)NC(CN)c1csc(CO)n1 (stereo not shown) | MET |
| Cc1cc(-c2ccc(C(F)(F)F)cn2)[nH]c1C(=O)NC(CN)c1ncc(CO)s1 (stereo not shown) | NOT MET |
| NCC(NC(=O)c1ccc(-c2ccc(C(F)(F)F)cn2)[nH]1)c1ncc(CO)s1 (stereo not shown) | NOT MET |
| NCC(NC(=O)c1ccc(-c2ccc(C(F)(F)F)cn2)[nH]1)c1csc(C(=O)NCCO)n1 (stereo not shown) | NOT MET |
| NCC(NC(=O)c1ccc(-c2ccc(Cl)nc2)[nH]1)c1nc(CO)cs1 (stereo not shown) | NOT MET |
| NCC(NC(=O)c1ccc(-c2ccc(C(F)(F)F)cn2)[nH]1)c1nc(C(O)CO)cs1 (stereo not shown) | NOT MET |
| COc1cc(-c2ccc(C(=O)NC(CN)c3nc(CO)cs3)[nH]2)ccn1 (stereo not shown) | NOT MET |
